# system tested: Human CB2R (Cannabinoid receptor 2) (Homo sapiens, UniProt P34972)
# Sequence (P34972 whole entry): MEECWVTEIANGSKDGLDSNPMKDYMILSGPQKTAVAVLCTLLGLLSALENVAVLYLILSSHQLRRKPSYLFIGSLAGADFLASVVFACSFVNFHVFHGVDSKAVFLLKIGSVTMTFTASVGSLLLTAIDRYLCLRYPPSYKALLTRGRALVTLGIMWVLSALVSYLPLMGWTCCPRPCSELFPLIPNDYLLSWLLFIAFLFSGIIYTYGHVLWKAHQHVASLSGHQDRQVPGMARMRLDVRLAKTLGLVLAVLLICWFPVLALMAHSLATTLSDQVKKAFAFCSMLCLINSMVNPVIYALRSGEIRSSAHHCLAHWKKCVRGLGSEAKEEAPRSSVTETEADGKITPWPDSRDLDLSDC
# assay remarks: CB-2 in vitro cAMP (HTRF) assay
# condition notes: HEK cells, cAMP HTRF, 250 nM forskolin; mean where tested more than once; read-out: CB2 HEK_cAMP EC50
measured endpoint: EC50 (µM)

Example entries begin here.
1. O=C(O)c1ccc(S(=O)(=O)N2CCC(Cn3c(C4CC4)nc4ccc(C(c5ccc(Cl)cc5)c5ccc(Cl)cc5)cc43)CC2)cc1 ... 0.7
2. O=C(CCO)N1CCC(n2c(C3CC3)nc3ccc(C(c4ccc(Cl)cc4)c4ccc(Cl)cc4)cc32)CC1 ... 9.53
3. COC(=O)c1cnc(N2CCC(Cn3c(C4CC4)nc4ccc(C(c5ccc(Cl)cc5)c5ccc(Cl)cc5)cc43)CC2)nc1 ... 0.632
4. O=C(O)COc1ccc(N2CCC(n3c(C4CC4)nc4ccc(C(c5ccc(Cl)cc5)c5ccc(Cl)cc5)cc43)CC2)cc1 ... 6.4
5. O=C(O)c1cccc(CN2CCC(n3c(C4CC4)nc4ccc(C(c5ccc(Cl)cc5)c5ccc(Cl)cc5)cc43)CC2)c1O ... 5.09

a. O=C(O)c1ccc(C(F)(F)F)c(CN2CCC(n3c(C4CC4)nc4ccc(C(c5ccc(Cl)cc5)c5ccc(Cl)cc5)cc43)CC2)c1
b. O=C(O)c1cnc(N2CCC(Cn3c(C4CC4)nc4ccc(C(c5ccc(Cl)cc5)c5ccc(Cl)cc5)cc43)CC2)nc1
Two entries are listed, a and b . Which one carries the higher EC50? Give the label under which the chosen entry appears.
a
(a: 11.4 µM, b: 2.16 µM)

---

# system tested: Human CB1R (Cannabinoid receptor 1) (Homo sapiens, UniProt P21554)
# Sequence (P21554 whole entry): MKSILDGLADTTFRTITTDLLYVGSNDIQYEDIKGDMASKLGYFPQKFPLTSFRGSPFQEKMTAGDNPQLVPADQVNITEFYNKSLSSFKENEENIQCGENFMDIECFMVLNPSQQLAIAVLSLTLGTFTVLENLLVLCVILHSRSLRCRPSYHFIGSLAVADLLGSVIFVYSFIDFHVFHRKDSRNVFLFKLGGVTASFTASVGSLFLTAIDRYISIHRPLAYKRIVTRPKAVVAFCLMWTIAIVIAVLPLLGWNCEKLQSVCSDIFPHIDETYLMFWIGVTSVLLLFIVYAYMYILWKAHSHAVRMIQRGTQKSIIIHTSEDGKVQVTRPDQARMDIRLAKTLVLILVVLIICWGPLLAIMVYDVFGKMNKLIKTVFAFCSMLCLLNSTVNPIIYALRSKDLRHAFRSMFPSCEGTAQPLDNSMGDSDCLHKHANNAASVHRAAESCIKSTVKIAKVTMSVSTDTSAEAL
# assay remarks: CB-1 in vitro cAMP (HTRF) assay
# Format: cell-based
# condition notes: HEK cells, cAMP HTRF, 250 nM forskolin; mean where tested more than once; read-out: CB1 HEK_cAMP EC50
measured endpoint: EC50 (nM)

Here are 3 compounds together with their reported answers.
1. O=S(=O)(N1CCC(n2c(C3COC3)nc3ccc(C(O)(c4ccc(Cl)cc4)c4ccc(Cl)cc4)cc32)CC1)C(F)(F)F ... 7.3
2. Oc1ccc(CCn2c(C3CC3)nc3ccc(C(c4ccc(Cl)cc4)c4ccc(Cl)cc4)cc32)cc1 ... 87.6
3. NC(=O)COc1ccc(Cn2c(C3CC3)nc3ccc(C(c4ccc(Cl)cc4)c4ccc(Cl)cc4)cc32)cc1 ... 255

A. O=S(=O)(c1ccc(CO)o1)N1CCC(n2c(C3CC3)nc3ccc(C(c4ccc(Cl)cc4)c4ccc(Cl)cc4)cc32)CC1
B. Clc1ccc(C(c2ccc3nc(-c4ccsc4)n(-c4cccc(Cl)c4)c3c2)c2nccs2)cc1 (centres unmarked)
Consider entries A and B . Which has the numerically lower EC50? Write down the label attached to your selection.
A
(A: 12.3 nM, B: 755 nM)

1. NC(=O)COc1ccc(S(=O)(=O)N2CCC(n3c(C4CC4)nc4ccc(C(c5ccc(Cl)cc5)c5ccc(Cl)cc5)cc43)CC2)cc1
2. CCc1nc2ccc(C(CO)(c3ccc(Cl)cc3)c3ccc(Cl)cc3)cc2n1C1CCN(S(=O)(=O)C(F)(F)F)CC1
3. CCOC(=O)N1CCC(n2c(C)nc3ccc(C(c4ccc(Cl)cc4)c4nccs4)cc32)CC1 (centres unmarked)
4. NC(=O)c1ccccc1S(=O)(=O)N1CCC(n2c(C3CC3)nc3ccc(C(c4ccc(Cl)cc4)c4ccc(Cl)cc4)cc32)CC1
Sort ascending by EC50. Field: ranking. Enter the labels in the order requested.
1, 4, 2, 3

a. CCOC(=O)N1CCC(n2c(-c3nccs3)nc3ccc(C(c4ccc(Cl)cc4)c4nccs4)cc32)CC1 (centres unmarked)
b. CCOC(=O)N1CCC(n2c(-c3ccc(Cl)cc3)nc3ccc(C(c4ccc(Cl)cc4)c4nccs4)cc32)CC1 (centres unmarked) [Example 441]
Input pair: a , b . Output: entry with lower EC50. Label of pick, please.
a
(a: 1180 nM, b: 2090 nM)
